From: PubChem BioAssay (Tox21)

# TEST_DETAILS: qHTS assay to identify small molecule antagonists of the estrogen related receptor signaling pathway with the pleiotropic PPARgamma coactivator (PGC) from Tox21 10K library - cell viability counter screen (AID 1224840); note: nearly all actives have a fitted effect of over 40% in size
# CONDITIONS_USED: PGC/ERR reporter cells viability, CellTiter-Fluor, 17.5 h; series mostly up to 92.4 µM
Results filed as inconclusive are left out. Activity calls are given as the source filed them. Calls come from the whole dose curve; as a rule, active = well fitted cell-killing curve with a large enough effect in the repeat runs (not every such curve was filed as active); inconclusive = weak or mixed curves, or effect the other way; inactive = no such curve, though single readings can be large or run the other way.
Field 'call' accepts y = active, n = inactive

Worked cases, answers included:
CCCCCCCC(=O)OCC(O)CO (centres undefined) | n
COc1ccc(O)cc1 | n
CC1=NN(c2ccccc2)C(=O)C1 | n
C1CNCCN1 | n
CN(C)C=O | n
CC(C)(C)CC(C)(C)c1ccc(O)c(-n2nc3ccccc3n2)c1 | n
O=[N+]([O-])c1ccc(O)cc1 | y
COC(=O)c1ccc(O)cc1 | n

Inquiry: What did the test return for `CC(=O)CCC(C)C` ?
Reply text: n

Inquiry: What did the test return for `COc1ccccc1O` ?
Reply text: n

Inquiry: What did the test return for `COCCOCCOC` ?
Reply text: n

Inquiry: What did the test return for `C[C@]12C=CC(=O)C=C1CC[C@@H]1[C@@H]2C(=O)C[C@@]2(C)[C@H]1CC[C@]2(O)C(=O)CO` ?
Reply text: n

Inquiry: What did the test return for `COc1ccc(C(=O)c2ccccc2)c(O)c1` ?
Reply text: n

Inquiry: What did the test return for COCC(C)N (centres undefined) ?
Reply text: n

----------
# TESTED_ON: Bile acid receptor (Homo sapiens) (UniProt Q96RI1)
# Sequence (Q96RI1 whole entry, looked up): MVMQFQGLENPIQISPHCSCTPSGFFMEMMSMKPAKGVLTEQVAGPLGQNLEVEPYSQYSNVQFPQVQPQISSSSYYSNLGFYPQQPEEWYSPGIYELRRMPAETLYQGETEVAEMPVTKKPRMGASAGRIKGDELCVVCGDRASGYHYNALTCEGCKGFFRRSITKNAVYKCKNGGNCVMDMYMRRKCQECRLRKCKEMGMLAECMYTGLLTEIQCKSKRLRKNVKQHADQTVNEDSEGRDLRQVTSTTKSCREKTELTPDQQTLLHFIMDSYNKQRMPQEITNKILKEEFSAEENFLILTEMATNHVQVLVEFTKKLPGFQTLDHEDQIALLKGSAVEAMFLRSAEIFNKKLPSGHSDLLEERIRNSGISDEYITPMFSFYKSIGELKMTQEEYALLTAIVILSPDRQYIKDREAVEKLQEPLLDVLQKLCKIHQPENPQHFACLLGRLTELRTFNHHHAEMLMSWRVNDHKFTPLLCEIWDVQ
# TEST_DETAILS: qHTS assay to identify small molecule agonists of the farnesoid-X-receptor (FXR) signaling pathway (AID 743220); note: % is set by controls: 0 for no effect and ±100 for the full control effect
# CONDITIONS_USED: HEK293T FXR-UAS-bla, beta-lactamase FRET ratio, 16 h; series mostly up to 62.6 µM
Results filed as inconclusive are left out. Activity calls are given as the source filed them. Calls follow the shape of the dose curve; as a rule, active = well fitted activation curve with a large enough effect in the signal ratio in the repeat runs (not every such curve was filed as active); inconclusive = weak or mixed curves, or effect the other way; inactive = flat fitted curve, though single readings scatter; the % refers to the signal ratio.
MEASUREMENT_NAME: outcome

Cn1cnc2c1c(=O)[nH]c(=O)n2C | inactive
C[C@]12CC[C@@H]3c4ccc(O)cc4CC[C@H]3[C@@H]1CCC2=O | inactive
CC(=O)/C=C/C1=C(C)CCCC1(C)C | inactive

----------
# TEST_DETAILS: qHTS RealTime-Glo MT Cell Viability Assay in HEK293 cells - 8 hour (AID 1224887); note: top concentration of the series differs between compounds; % is set by controls: 0 for no effect and ±100 for the full control effect; nearly all actives have a fitted effect of over 50% in size
# CONDITIONS_USED: RealTime-Glo luminescence; series mostly up to 76.8 µM
Results filed as inconclusive are left out. Active and inactive are the calls of the source. Calls follow the shape of the dose curve; as a rule, active = well fitted cell-killing curve with a large enough effect in the repeat runs; inconclusive = weak or mixed curves, or effect the other way; inactive = flat fitted curve, though single readings scatter.
MEASUREMENT_NAME: outcome

C=CCOC(=O)CC(C)C | inactive
OCCCc1ccccc1 | inactive
O=c1cc[nH]c(=O)[nH]1 | inactive

----------
# TEST_DETAILS: qHTS assay to identify small molecule phospholipidosis (PLD) inducers (AID 1259344); note: % is set by controls: 0 for no effect and ±100 for the full control effect
# CONDITIONS_USED: HepG2 phospholipidosis, LipidTOX Red imaging, 24 h; series mostly up to 38.3 µM
# Procedure: National Center for Advancing Translational Sciences [NCATS] Drug-induced Phospholipidosis (PLD) caused by cationic amphiphilic drugs is characterized by the appearance of unicentric or multicentric-lamellar bodies when viewed under electron microscope. […] Drug induced phospholipid accumulation is stained with the LipidTox dyes in red color which then is determined using an automated high content screening system. […]
Inconclusive results are not listed. Active and inactive are the calls of the source. Calls follow the shape of the dose curve; as a rule, active = well fitted activation curve with a large enough effect; inconclusive = small, poorly fitted or top-dose-only effect; inactive = flat fitted curve, though single readings scatter.
MEASUREMENT_NAME: outcome

CCCCCCCC(=O)OCC(O)CO (stereo not given) | inactive
C1CNCCN1 | inactive
Cc1cnc(NC(=O)C2=C(O)c3ccccc3S(=O)(=O)N2C)s1 | inactive
CC(=O)Oc1ccccc1C(=O)O | inactive
CCc1cc(C(N)=S)ccn1 | inactive

Just so you know, measured outcome for `Cc1cccc(Nc2cc(Cl)nc(SCC(=O)O)n2)c1C` came out at inactive

Just so you know, measured outcome for `NC(=O)N1c2ccccc2C=Cc2ccccc21` came out at inactive

Just so you know, measured outcome for `Oc1cccc(O)c1` came out at inactive

----------
# TEST_DETAILS: qHTS assay to test for compound auto fluorescence at 535 nm (green) in HEK293 cell free culture (AID 720682); note: % is set by controls: 0 for no effect and ±100 for the full control effect
# CONDITIONS_USED: cell-free medium, green autofluorescence 485/535 nm; series mostly up to 91.3 µM
Activity calls are given as the source filed them. The call rests on the fitted dose curve; in most records, active means well fitted curve in the direction sought with a large enough effect in the repeat runs; inconclusive means weak or mixed curves; inactive means flat fitted curve, though single readings scatter.
MEASUREMENT_NAME: outcome

Worked cases, outcome given:
CC(=O)OC/C=C(C)/C=C/C=C(C)/C=C/C1=C(C)CCCC1(C)C | inactive
COCCOCCOC | inactive
CC(=O)/C=C/C1=C(C)CCCC1(C)C | inactive
CC(C)=CCC/C(C)=C/CO | inactive
CCCCC/C(C=O)=C\c1ccccc1 | inactive

Just so you know, measured outcome for `Cc1ccc(O)c(-n2nc3ccccc3n2)c1` came out at inactive

Just so you know, measured outcome for `C[C@]12CC[C@@H]3c4ccc(O)cc4CC[C@H]3[C@@H]1CCC2=O` came out at inactive

----------
# TESTED_ON: Thyrotropin receptor (Homo sapiens) (UniProt P16473)
# Sequence (P16473 whole entry, looked up): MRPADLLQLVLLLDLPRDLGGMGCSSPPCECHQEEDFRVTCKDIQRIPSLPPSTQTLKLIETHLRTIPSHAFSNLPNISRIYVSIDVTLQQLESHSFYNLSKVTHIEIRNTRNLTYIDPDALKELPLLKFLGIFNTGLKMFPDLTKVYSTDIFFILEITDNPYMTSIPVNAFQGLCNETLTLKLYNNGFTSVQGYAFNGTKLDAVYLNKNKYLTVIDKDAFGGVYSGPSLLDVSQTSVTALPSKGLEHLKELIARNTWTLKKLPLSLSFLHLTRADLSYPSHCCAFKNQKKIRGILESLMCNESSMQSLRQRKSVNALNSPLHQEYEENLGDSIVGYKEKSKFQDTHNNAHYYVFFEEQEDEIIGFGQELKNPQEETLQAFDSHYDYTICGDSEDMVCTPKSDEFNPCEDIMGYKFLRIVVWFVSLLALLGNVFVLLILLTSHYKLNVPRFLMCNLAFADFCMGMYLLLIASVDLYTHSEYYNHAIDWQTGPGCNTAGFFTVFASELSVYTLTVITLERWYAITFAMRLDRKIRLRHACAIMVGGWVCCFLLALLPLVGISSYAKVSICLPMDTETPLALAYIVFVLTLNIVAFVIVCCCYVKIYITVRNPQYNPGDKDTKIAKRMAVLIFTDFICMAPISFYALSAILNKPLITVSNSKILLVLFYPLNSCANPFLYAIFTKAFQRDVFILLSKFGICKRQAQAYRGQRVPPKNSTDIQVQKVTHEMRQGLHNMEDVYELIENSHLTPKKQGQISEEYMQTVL
# TEST_DETAILS: qHTS assay to identify small molecule antagonists of the thyroid stimulating hormone receptor (TSHR) signaling pathway (AID 1259385); note: % is set by controls: 0 for no effect and ±100 for the full control effect; nearly all actives have a fitted effect of over 20% in size
# CONDITIONS_USED: TSHR-HEK293 cAMP HTRF, TSH-stimulated antagonist mode; series mostly up to 92.4 µM
Inconclusive results are not listed. Active and inactive are the calls of the source. Calls follow the shape of the full dose curve.
MEASUREMENT_NAME: outcome

C=CC(=O)NC(C)(C)CS(=O)(=O)O | inactive
CCN(CC)CCOC(=O)c1ccc(N)cc1 | inactive
CN(C)Cc1cc(CN(C)C)c(O)c(CN(C)C)c1 | inactive

----------
# TEST_DETAILS: qHTS assay to identify small molecule antagonists of the progesterone receptor (PR) signaling pathway - cell viability counter screen (AID 1346798);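 note: HEK293T PR-UAS-bla cells stimulated with the agonist R5020; % is set by controls: 0 for no effect and ±100 for the full control effect; nearly all actives have a fitted effect of over 50% in size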
# CONDITIONS_USED: PR-UAS-bla HEK293T viability, CellTiter-Glo luminescence, 16 h; series mostly up to 92.4 µM
Results filed as inconclusive are left out. The source made the active and inactive calls. Calls follow the shape of the dose curve; as a rule, active = well fitted cell-killing curve with a large enough effect in the repeat runs; inconclusive = weak or mixed curves, or effect the other way; inactive = no such curve, though single readings can be large or run the other way.
Field 'call' accepts 1 = active, 0 = inactive

Worked cases, answers included:
CCCCOC(=O)CCCCCCCCC(=O)OCCCC | 0
CC(=O)Oc1ccccc1C(=O)O | 0
Cc1cnc(NC(=O)C2=C(O)c3ccccc3S(=O)(=O)N2C)s1 | 0
CC(O)COc1ccccc1 (stereo not drawn) | 0
CC(C)Cc1ccc(C(C)C(=O)O)cc1 (stereo not drawn) | 0
COc1ccc(O)cc1 | 0
CCc1cc(C(N)=S)ccn1 | 0
CCCCCCCCCCCCCC(=O)OC(C)C | 0
O=c1cc[nH]c(=O)[nH]1 | 0
CCCCNC(=O)NS(=O)(=O)c1ccc(N)cc1 | 0

Now for another entry.
Inquiry: What did the test return for CCCCCCCC(=O)OCC(O)CO (stereo not drawn) ?
Reply text: 0

----------
# TESTED_ON: Cytochrome P450 1A2 (Homo sapiens)
# TEST_DETAILS: Cytochrome P450 Family 1 Subfamily A Member 2 (CYP1A2) small molecule antagonists: luciferase reporter qHTS assay (AID 1671199); note: nearly all actives have a fitted effect of over 50% in size
# CONDITIONS_USED: P450-Glo CYP1A2 enzyme, luciferin luminescence, 1 h; series mostly up to 115 µM
Records with an inconclusive call do not appear. Activity calls are given as the source filed them. The call rests on the fitted dose curve; in most records, active means well fitted inhibition curve with a large enough effect in the repeat runs; inconclusive means weak or mixed curves; inactive means no such curve, though single readings can be large or run the other way.
Field 'call' accepts active, inactive

COCCOCCOC | inactive
C#C[C@]1(O)CC[C@H]2[C@@H]3CCC4=CC(=O)CC[C@@H]4[C@H]3CC[C@@]21CC | inactive
CCn1cc(C(=O)O)c(=O)c2ccc(C)nc21 | inactive
Cc1cccc(Nc2cc(Cl)nc(SCC(=O)O)n2)c1C | inactive
CCCCNC(=O)NS(=O)(=O)c1ccc(N)cc1 | inactive

Inquiry: What did the test return for `CN(C)Cc1cc(CN(C)C)c(O)c(CN(C)C)c1` ?
Reply text: inactive

Inquiry: What did the test return for `CO[C@H]1C=CO[C@@]2(C)Oc3c(C)c(O)c4c(O)c(c(/C=N/N5CCN(C)CC5)c(O)c4c3C2=O)NC(=O)/C(C)=C\C=C[C@H](C)[C@H](O)[C@@H](C)[C@@H](O)[C@@H](C)[C@H](OC(C)=O)[C@@H]1C` ?
Reply text: inactive

Inquiry: What did the test return for `CCCCCCCCCCCCCC(=O)OC(C)C` ?
Reply text: inactive

Inquiry: What did the test return for `COC(=O)c1ccc(C=O)cc1` ?
Reply text: active

Inquiry: What did the test return for `COC1=CC(=O)C[C@@H](C)[C@]12Oc1c(Cl)c(OC)cc(OC)c1C2=O` ?
Reply text: inactive

Inquiry: What did the test return for `NC(=O)OCC(COC(N)=O)c1ccccc1` ?
Reply text: inactive

Inquiry: What did the test return for `Cc1c(N(C)C)c(=O)n(-c2ccccc2)n1C` ?
Reply text: active

----------
# TEST_DETAILS: qHTS assay to identify small molecule agonists of the retinoic acid receptor (RAR) signaling pathway (AID 1159553); note: % is set by controls: 0 for no effect and ±100 for the full control effect
# CONDITIONS_USED: C3RL4 RARE luciferase reporter, agonist, 6 h; series mostly up to 73.3 µM
Results filed as inconclusive are left out. Active and inactive are the calls of the source. The call rests on the fitted dose curve; in most records, active means well fitted activation curve with a large enough effect in the repeat runs; inconclusive means weak or mixed curves, or effect the other way; inactive means no such curve, though single readings can be large or run the other way.
MEASUREMENT_NAME: outcome

CCCCCCCC(=O)OCC(O)CO (stereo not drawn) | inactive
CCN1CCCC1=O | inactive
O=C1OC(c2ccc(O)cc2)(c2ccc(O)cc2)c2ccccc21 | inactive
